Entry source: paper PMC7943553

Below, each entry is listed with its recorded pKd.
- measurement.target: T1, P. vivax Reticulocyte Binding Protein 2b, residues 161–1454 (P. vivax strain Salvador I, UniProt A5K736 161-1454, DyLight 488 (NHS ester) in the FRET assay; biotin (BirA site) in the competition ELISA between human mAbs)
- T1 chain: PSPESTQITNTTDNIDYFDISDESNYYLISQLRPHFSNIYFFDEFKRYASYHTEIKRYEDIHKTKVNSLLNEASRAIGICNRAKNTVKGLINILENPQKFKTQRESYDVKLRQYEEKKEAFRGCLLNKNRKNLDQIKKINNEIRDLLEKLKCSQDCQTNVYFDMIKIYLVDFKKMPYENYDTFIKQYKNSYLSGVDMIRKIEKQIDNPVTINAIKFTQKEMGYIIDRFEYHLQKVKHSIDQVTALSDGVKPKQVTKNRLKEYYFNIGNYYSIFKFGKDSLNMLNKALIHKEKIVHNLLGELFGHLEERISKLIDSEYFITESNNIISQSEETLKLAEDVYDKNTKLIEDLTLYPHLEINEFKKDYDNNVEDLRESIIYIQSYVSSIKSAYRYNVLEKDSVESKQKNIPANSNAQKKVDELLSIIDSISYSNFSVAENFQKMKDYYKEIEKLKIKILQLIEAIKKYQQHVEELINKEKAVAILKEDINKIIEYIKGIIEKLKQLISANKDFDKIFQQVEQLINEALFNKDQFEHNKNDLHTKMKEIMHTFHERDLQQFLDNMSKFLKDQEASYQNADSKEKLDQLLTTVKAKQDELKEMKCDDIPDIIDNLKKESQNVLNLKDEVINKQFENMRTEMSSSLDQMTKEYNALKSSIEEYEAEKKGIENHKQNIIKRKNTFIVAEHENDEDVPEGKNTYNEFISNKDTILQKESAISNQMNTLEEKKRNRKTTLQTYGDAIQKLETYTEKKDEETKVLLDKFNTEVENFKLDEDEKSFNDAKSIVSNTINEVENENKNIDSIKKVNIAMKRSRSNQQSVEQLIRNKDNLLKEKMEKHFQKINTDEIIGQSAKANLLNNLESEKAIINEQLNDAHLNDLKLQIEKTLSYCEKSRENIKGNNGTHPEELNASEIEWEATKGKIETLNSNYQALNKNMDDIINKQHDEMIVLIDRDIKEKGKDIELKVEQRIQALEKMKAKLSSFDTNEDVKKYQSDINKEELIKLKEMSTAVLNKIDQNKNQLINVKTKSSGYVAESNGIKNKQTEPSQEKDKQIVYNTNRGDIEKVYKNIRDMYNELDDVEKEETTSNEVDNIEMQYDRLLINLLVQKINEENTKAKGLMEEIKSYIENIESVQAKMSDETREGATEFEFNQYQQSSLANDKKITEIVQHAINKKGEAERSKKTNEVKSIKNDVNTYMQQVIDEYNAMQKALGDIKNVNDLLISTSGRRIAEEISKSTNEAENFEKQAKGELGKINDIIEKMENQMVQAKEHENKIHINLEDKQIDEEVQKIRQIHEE
- measurement.description: BLI; representative sensorgram
pKd: −log10 of the molar value.

// worked examples, pKd included
binder	pKd
PvRBP2b human mAb 258259 (antibody, V domains shown) VH: EVQLLESGGGLVRPGGSQRLSCAASGFTFTPYAMTWVRQAPGKGLEWLSTISGSGGSTYYADSVKGRFTISRDNSKNMLYLQMNSLTAEDTALYYCTKDKDEYTFGHNAFDVWGQGTMVTVSS VL: SYELTQAPSVSVAPGQTARITCGGDNIGRKTVNWYQQKPGQAPVLVIYYDNDRPSGIPERFSGSNSGNMATLSISRVEVGDEADYYCQVWDSNNDHPVFGGGTKLTVV	> 11.00
PvRBP2b human mAb 253245 (antibody, V domains shown) VH: EVQLVQSGAEVKKPGSSMKVSCKASGGTFNRYVFSWVRQAPGQGLEWMGGILPILETTYYAKNFKGRVTITADESTSTVYMELSSLTSEDTAVYFCARDEHDYVWGSYRPSLTGPWGQGTLVTVSS VL: QSALTQPPSTSGSPGQSVTISCTGTGIDVGGFSYVSWFQYHPGKAPKLIIFEVTKRPSGVPDRFSGSKSGNTASLTISGLQADDEAEYYCSSYAVNNNFVFGTGTKVTVL	> 11.00
PvRBP2b human mAb 241242 (antibody, V domains shown) VH: EVQLLESGGGLVQPGGSLRLSCAVSGFTFRNYALSWVRQAPGKGLDWVSTISASGGATYYADSVKGHFTISRDNSKNILYLDMKSLRAEDTAIYYCARDGGSYTPYFFLDSWGQGALVTVSS VL: SYELTQPASVSVAPGQTAQITCGGNSIGRKSIHWYQHKPGQAPVLVISYDSDRPSGIPERFSGSNSGNTATLTISKVEAGDEADFYCQVRDSDNDHVVFGGGTKLTVL	> 11.00
PvRBP2b human mAb 283284 (antibody, V domains shown) VH: QVQLQQWGAGLLKPSETLALTCTVYGGSSSGYYWNWIRQSPGKGLEWIGEISDSGSTIYNPSLESRVTMSVDTSKNQFSLKLTSVTAADTAVYYCAKAILTRYNWLDPWSQGTLVTVSS VL: DIVMTQSPSSLSASVGDRISISCRASQGVNSALAWYQQKPGKAPKLLIYDASTLESGVPSRFSGSGSGTDFALTINSLQPEDFATYYCQQFNSYPLTFGGGTKVEIK	10.00

Could you now look at the following binder, please?
Data request: Reported pKd for PvRBP2b human mAb 243244 (antibody, V domains shown) VH: QVQLVESGGGVVQSGKSLRVSCAASGFTFSSYGMHWVRQAPGKGLEWVAFISYDGDNKYSADSVKGRLTISRDNSKNTLYLQMNSLRPEDTAVYYCAKESNYGENAFDIWGQGTMVTVSS VL: QSALTQPRSVSGSPGQSVTISCTGTSSDVGFYNFVSWYQHHPGKAPKLIIYDVSERPSGVPDRFSGSKSGNTASLSISGLQPEDEADYYCCSYAGTYTFVFGSGTKVTVL : what is it?
Data returned: > 11.00
